Test Target: receptor-binding domain (RBD) of the spike protein of SARS-CoV-2 (SARS-CoV-2, UniProt P0DTC2 319-541)
Property Label: Kd (nM)
One number for each entry, in nM.

Req: Entry P5A-1B8 (antibody, human IgG1, kappa, V domains shown) VH: EVQLVESGGGLIQPGGSLRLSCAASGFTVSSNYMSWVRQAPGKGLEWVSVIYPGGSTFYADSVKGRFTISRDNSKNTLYLQMNSLRAEDTAVYYCARETLAFDYWGQGTLVTVSS VL: DIQLTQSPSFLSASVGDRVTITCRASQGISSYLAWYQQKPGKAPKLLIYAASTLQSGVPSRFSGSGSGTEFTLTISSLQPEDFATYYCQQLNSYPPAFGGGTKVEIKR has what Kd?
Resp: 4.28
